TGT: recombinant human Tie-2 protein (Homo sapiens, UniProt Q02763)
Construct: purchased Thermo Fisher Scientific Inc. PV3628
Sequence (Q02763 23-1124): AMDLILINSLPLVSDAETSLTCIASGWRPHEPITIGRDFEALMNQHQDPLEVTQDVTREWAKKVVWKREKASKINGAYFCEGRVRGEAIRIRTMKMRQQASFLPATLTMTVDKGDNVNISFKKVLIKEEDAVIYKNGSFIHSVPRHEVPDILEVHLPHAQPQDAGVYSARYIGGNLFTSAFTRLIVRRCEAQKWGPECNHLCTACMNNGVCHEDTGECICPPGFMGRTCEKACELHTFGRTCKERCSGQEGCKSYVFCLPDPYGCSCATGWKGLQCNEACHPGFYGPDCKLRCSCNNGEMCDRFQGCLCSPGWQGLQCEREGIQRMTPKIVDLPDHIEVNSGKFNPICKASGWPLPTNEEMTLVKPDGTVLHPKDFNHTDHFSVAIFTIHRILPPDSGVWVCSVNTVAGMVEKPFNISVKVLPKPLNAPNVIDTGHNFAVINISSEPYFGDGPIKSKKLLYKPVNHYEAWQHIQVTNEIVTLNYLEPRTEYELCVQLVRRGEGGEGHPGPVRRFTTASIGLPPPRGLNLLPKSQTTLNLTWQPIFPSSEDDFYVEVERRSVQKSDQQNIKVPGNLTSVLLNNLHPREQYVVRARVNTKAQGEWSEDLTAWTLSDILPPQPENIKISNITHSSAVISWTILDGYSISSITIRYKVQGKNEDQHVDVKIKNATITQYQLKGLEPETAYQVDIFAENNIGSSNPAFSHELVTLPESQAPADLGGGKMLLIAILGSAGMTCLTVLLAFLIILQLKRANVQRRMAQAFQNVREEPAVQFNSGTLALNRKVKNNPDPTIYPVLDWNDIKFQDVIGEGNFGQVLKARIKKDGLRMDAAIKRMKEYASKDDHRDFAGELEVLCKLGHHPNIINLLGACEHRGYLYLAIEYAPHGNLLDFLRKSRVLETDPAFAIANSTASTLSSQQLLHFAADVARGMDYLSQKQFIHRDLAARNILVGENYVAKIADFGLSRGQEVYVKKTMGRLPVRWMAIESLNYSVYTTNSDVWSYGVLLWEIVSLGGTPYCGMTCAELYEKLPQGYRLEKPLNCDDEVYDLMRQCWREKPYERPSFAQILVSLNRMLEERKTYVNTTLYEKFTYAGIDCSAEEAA
ASSAY TEXT: Z′-Lyte FRET enzymatic activity assay of Tie-2 kinase
Type: biochemical
EXPERIMENTAL SETUP: 10 μg/mL preliminary screening, Table S1
MEASURE: inhibition at 10 µg/mL (%)
Give the value in % but do not write % after it.

A selection of reference data follows.
SMILES RECORD: O=C1c2ccccc2C(=O)N1CCc1nn2c(-c3cccnc3)nnc2s1
MEASURE: inhibition at 10 µg/mL
RESULT NUMBER: 101
--
SMILES RECORD: O=C(NC(=S)Nc1cccc2c(O)cccc12)c1ccc(-c2ccccc2)cc1
MEASURE: inhibition at 10 µg/mL
RESULT NUMBER: 97.8
--
SMILES RECORD: CC(=O)Nc1c(O)nc(SCC(=O)Nc2ccc(C(C)=O)cc2)[nH]c1=O
MEASURE: inhibition at 10 µg/mL
RESULT NUMBER: 81.9
--
SMILES RECORD: COC(=O)c1ccc(C)c(NC(=O)c2cc(-c3ccccn3)nc3ccc(Br)cc23)c1
MEASURE: inhibition at 10 µg/mL
RESULT NUMBER: 95.2

Fill in the blank: the reported inhibition at 10 µg/mL of CCOc1ccc2c(c1)-c1c(ssc1=S)C(C)(C)N2C(=O)CSc1nc(C)cc(O)n1 is ____.
89.5

Fill in the blank: the reported inhibition at 10 µg/mL of COc1ccc(C(=O)NC(=S)Nc2ccc(NC(=O)c3cccc(C)c3)cc2)cc1OC is ____.
81.6

----------
TGT: recombinant human Tie-2 protein (Homo sapiens, UniProt Q02763)
Construct: purchased Thermo Fisher Scientific Inc. PV3628
ASSAY TEXT: Z′-Lyte FRET enzymatic activity assay of Tie-2 kinase
Assay type: biochemical
EXPERIMENTAL SETUP: 5 μg/mL, n ≥ 2; read-out: Kinase Inhibition (%) at 5 μg/mL (± SD)
The compounds listed here are annotated with their inhibition at 5 µg/mL.
Give the value in % but do not write % after it.

A selection of reference data follows.
SMILES RECORD: CCCOc1ccc(C(=O)NC(=S)Nc2ccc(NC(=O)c3ccc(C(C)(C)C)cc3)cc2)cc1
TGT: recombinant human Tie-2 protein (Homo sapiens, UniProt Q02763)
UNITS SYMBOL: %
RESULT NUMBER: 7.88
--
SMILES RECORD: COc1ccc(C(=O)NC(=S)Nc2ccc(NC(=O)c3ccccc3)cc2)cc1[N+](=O)[O-]
TGT: recombinant human Tie-2 protein (Homo sapiens, UniProt Q02763)
UNITS SYMBOL: %
RESULT NUMBER: 35.1
--
SMILES RECORD: COc1cc(NC(=S)NC(=O)c2ccc(C)cc2C)ccc1NC(=O)c1ccccc1Cl
TGT: recombinant human Tie-2 protein (Homo sapiens, UniProt Q02763)
UNITS SYMBOL: %
RESULT NUMBER: 71.2

Fill in the blank: the reported inhibition at 5 µg/mL of Cc1cccc(C(=O)Nc2ccc(NC(=S)NC(=O)c3ccccc3)cc2)c1 is ____.
67.3

Fill in the blank: the reported inhibition at 5 µg/mL of Cc1cc(NC(=S)NC(=O)c2ccc(Cl)c(Cl)c2)ccc1NC(=O)c1ccccc1 is ____.
58

Fill in the blank: the reported inhibition at 5 µg/mL of CCCOc1cccc(C(=O)NC(=S)Nc2ccc(NC(=O)c3ccccc3)cc2)c1 is ____.
43

Fill in the blank: the reported inhibition at 5 µg/mL of CC(C)(C)c1ccc(C(=O)Nc2ccc(NC(=S)NC(=O)c3ccccc3)cc2)cc1 is ____.
33.4

Fill in the blank: the reported inhibition at 5 µg/mL of Cc1cc(NC(=S)NC(=O)c2ccc(C)c([N+](=O)[O-])c2)ccc1NC(=O)c1ccccc1 is ____.
23.1

----------
TGT: recombinant human Tie-2 protein (Homo sapiens, UniProt Q02763)
Construct: purchased Thermo Fisher Scientific Inc. PV3628
ASSAY TEXT: Z′-Lyte FRET enzymatic activity assay of Tie-2 kinase
Type: biochemical
EXPERIMENTAL SETUP: 5 μg/mL, n ≥ 2; read-out: Kinase Inhibition (%) at 5 μg/mL (± SD)
The compounds listed here are annotated with their inhibition at 5 µg/mL.
Give the value in % but do not write % after it.

COMPOUND: O=C(NC(=S)Nc1ccc(NC(=O)c2ccc(Cl)cc2Cl)cc1)c1ccccc1 [TP-C3-1]
RESULT NUMBER: 63

COMPOUND: CCc1ccc(C(=O)NC(=S)Nc2ccc(NC(=O)c3cccc(Cl)c3)cc2)cc1 [TP-C3-43]
RESULT NUMBER: 77.7

COMPOUND: COc1ccc(Cl)cc1C(=O)NC(=S)Nc1ccc(NC(=O)c2ccccc2)c(C)c1 [TP-C3-27]
RESULT NUMBER: 47.9

COMPOUND: Cc1cccc(C(=O)Nc2ccc(NC(=S)NC(=O)c3ccccc3Cl)cc2)c1 [TP-C3-45]
RESULT NUMBER: 49.3

Now let's try a different one.
Kindly state the measured inhibition at 5 µg/mL obtained for CCc1ccc(C(=O)NC(=S)Nc2ccc(NC(=O)c3ccc(Cl)cc3Cl)cc2)cc1 [TP-C3-55] with recombinant human Tie-2 protein (Homo sapiens, UniProt Q02763).
60.2

----------
TGT: recombinant human Tie-2 protein (Homo sapiens)
Construct: purchased Thermo Fisher Scientific Inc. PV3628
ASSAY TEXT: Z′-Lyte FRET enzymatic activity assay of Tie-2 kinase
Format: biochemical
EXPERIMENTAL SETUP: Z′-Lyte assay, 100 μM ATP, n ≥ 2 per concentration; read-out: IC50 (half-maximal inhibitory concentration), Tie-2 kinase
MEASURE: IC50 (µM)
Give the value in µM but do not write µM after it.

A selection of reference data follows.
SMILES RECORD: CC(=O)Nc1c(O)nc(SCC(=O)Nc2ccc(C(C)=O)cc2)[nH]c1=O
RESULT NUMBER: 5.15
//
SMILES RECORD: COc1cc(NC(=S)NC(=O)c2ccc(C)cc2C)ccc1NC(=O)c1ccccc1Cl
RESULT NUMBER: 2.74

Fill in the blank: the reported IC50 of CC1(C)CC(=O)C(C(=S)Nc2ccccc2)=C(NCc2ccc3c(c2)OCO3)C1 is ____.
6.78

Fill in the blank: the reported IC50 of O=C(NCc1ccco1)c1cc(-c2ccccn2)nc2ccc(Cl)cc12 is ____.
4.59

Fill in the blank: the reported IC50 of CCc1ccc(C(=O)NC(=S)Nc2ccc(NC(=O)c3cccc(Cl)c3)cc2)cc1 is ____.
1.64

----------
TGT: recombinant human Tie-2 protein (Homo sapiens)
Construct: purchased Thermo Fisher Scientific Inc. PV3628
ASSAY TEXT: Z′-Lyte FRET enzymatic activity assay of Tie-2 kinase
Type: biochemical
EXPERIMENTAL SETUP: in the dose-response figure; read-out: IC50 (dose-dependent inhibitory effect), Tie-2 kinase (converted)
Criterion: IC50 strictly less than 3 µM. Met: yes (1). Not met: no (0).

SMILES RECORD: O=C(NC(=S)Nc1cccc2c(O)cccc12)c1ccc(-c2ccccc2)cc1
TGT: recombinant human Tie-2 protein (Homo sapiens)
CLASS ASSIGNMENT: yes (1)

SMILES RECORD: COC(=O)c1ccc(C)c(NC(=O)c2cc(-c3ccccn3)nc3ccc(Br)cc23)c1
TGT: recombinant human Tie-2 protein (Homo sapiens)
CLASS ASSIGNMENT: no (0)

SMILES RECORD: O=C1c2ccccc2C(=O)N1CCc1nn2c(-c3cccnc3)nnc2s1
TGT: recombinant human Tie-2 protein (Homo sapiens)
CLASS ASSIGNMENT: no (0)

SMILES RECORD: CCOc1ccc2c(c1)-c1c(ssc1=S)C(C)(C)N2C(=O)CSc1nc(C)cc(O)n1
TGT: recombinant human Tie-2 protein (Homo sapiens)
CLASS ASSIGNMENT: no (0)

SMILES RECORD: COc1ccc(C(=O)NC(=S)Nc2ccc(NC(=O)c3cccc(C)c3)cc2)cc1OC
TGT: recombinant human Tie-2 protein (Homo sapiens)
CLASS ASSIGNMENT: yes (1)

Dear reviewer, please state whether CC(=O)Nc1c(O)nc(SCC(=O)Nc2ccc(C(C)=O)cc2)[nH]c1=O has IC50 strictly beneath 3 µM.
no (0)

----------
TGT: recombinant human Tie-2 protein (Homo sapiens)
Construct: purchased Thermo Fisher Scientific Inc. PV3628
ASSAY TEXT: Z′-Lyte FRET enzymatic activity assay of Tie-2 kinase
Assay type: biochemical
EXPERIMENTAL SETUP: 10 μg/mL preliminary screening, Table S1
MEASURE: Inhibition (%) @10 μg/ml
Give the value in % but do not write % after it.

A selection of reference data follows.
COMPOUND: O=C(c1n[nH]c(=O)c2ccccc12)N1CCOC(COc2ccccc2)C1 (centres unmarked)
TGT: recombinant human Tie-2 protein (Homo sapiens)
RESULT NUMBER: 74.19
--
COMPOUND: CC(=O)c1cccc(NC(=O)CSc2nnc(-c3ccccc3)c(=O)[nH]2)c1
TGT: recombinant human Tie-2 protein (Homo sapiens)
RESULT NUMBER: 50.65
--
COMPOUND: N#Cc1cc2c([nH]c1=O)CC(c1ccccc1)CC2=NNc1ccccc1 (centres unmarked)
TGT: recombinant human Tie-2 protein (Homo sapiens)
RESULT NUMBER: 56.84

Fill in the blank: the reported Inhibition (%) @10 μg/ml of Cc1ccc2nc(-c3ccc(NC(=S)NC(=O)c4oc5ccccc5c4C)cc3)oc2c1 is ____.
85.54

Fill in the blank: the reported Inhibition (%) @10 μg/ml of O=C(NCc1ccco1)c1cc(-c2ccccn2)nc2ccc(Cl)cc12 is ____.
87.59

Fill in the blank: the reported Inhibition (%) @10 μg/ml of NS(=O)(=O)c1ccc(CCNC(=O)c2cc(-c3ccncc3)nc3ccc(Cl)cc23)cc1 is ____.
89.98

Fill in the blank: the reported Inhibition (%) @10 μg/ml of Cc1ccccc1-c1nc(S(=O)(=O)c2ccc(Cl)cc2)c(NCc2cccnc2)o1 is ____.
-0.28

Fill in the blank: the reported Inhibition (%) @10 μg/ml of COc1ccccc1C(=O)Nc1ccc(Oc2ccc3c(c2)C(=O)NC3=O)cc1 is ____.
54.56

Fill in the blank: the reported Inhibition (%) @10 μg/ml of Cc1nc(-c2cccnc2)sc1C(=O)NCc1ccccn1 is ____.
66.88

Fill in the blank: the reported Inhibition (%) @10 μg/ml of O=C(Nc1ccccn1)c1cc(-c2ccncc2)nc2ccccc12 is ____.
60.19

Fill in the blank: the reported Inhibition (%) @10 μg/ml of COc1ccc(-c2cc(-c3ccccc3)c(C#N)c(S(=O)(=O)Cc3ccccc3)n2)cc1 is ____.
69.07

Fill in the blank: the reported Inhibition (%) @10 μg/ml of O=C(CN(c1ccc2c(c1)OCCO2)S(=O)(=O)c1ccccc1)Nc1cccnc1 is ____.
12.5

Fill in the blank: the reported Inhibition (%) @10 μg/ml of COc1cccc(C2C(C(=O)c3ccc(C)o3)=C(O)C(=O)N2CCN(C)C)c1 (centres unmarked) is ____.
3.13

Fill in the blank: the reported Inhibition (%) @10 μg/ml of NC(=O)c1ccccc1NC(=O)CSc1nc(O)c(-c2ccccc2)c(=O)[nH]1 is ____.
90.36

Fill in the blank: the reported Inhibition (%) @10 μg/ml of CCc1cc2c(-c3ccccc3)cc(=O)oc2cc1OCC(=O)c1ccc(F)cc1 is ____.
43.81

Fill in the blank: the reported Inhibition (%) @10 μg/ml of Cc1c(C)n(Cc2ccccc2)c2ccc(C(=O)NNC(=S)NCC3CCCO3)cc12 (centres unmarked) is ____.
32.86

Fill in the blank: the reported Inhibition (%) @10 μg/ml of O=c1[nH]c(-c2ccc(OCc3ccccc3F)cc2)nc2ccccc12 is ____.
2.81

Fill in the blank: the reported Inhibition (%) @10 μg/ml of COc1cc2c(cc1OC)C(c1ccc(OCc3ccccc3)cc1)CC(=O)N2 (racemic) is ____.
55.28

Fill in the blank: the reported Inhibition (%) @10 μg/ml of CC1=C(C(=O)Nc2ccc(C)cc2C)C(c2ccc(OCc3ccccc3)cc2)NC(=S)N1 (racemic) is ____.
95.39

Fill in the blank: the reported Inhibition (%) @10 μg/ml of Cc1cccc(C(=O)Nc2ccc(-c3cc4ccccc4oc3=O)cc2)c1 is ____.
3.6

Fill in the blank: the reported Inhibition (%) @10 μg/ml of O=C(Nc1ccccc1C(=O)NCc1cccnc1)c1cccc(F)c1 is ____.
81.27
